Data provenance: ChEMBL document CHEMBL1151757

# Test: Ratio of drug uptake in midbrain to cerebellum in anesthetized cynomolgus monkey after 225 mins postinjection
# Assay type: ADME, organism-based, Macaca fascicularis
# Settings: in vivo, 3.75 h
Outcome Measure: Ratio

O=C(OCCC[18F])C1C2CCC(CC1c1cccc(/C=C\Br)c1)N2 (centres undefined) | 2.1
O=C(OCC[18F])C1C2CCC(CC1c1cccc(/C=C\Br)c1)N2 (centres undefined) | 2.3
O=C(OCC[18F])C1C2CCC(CC1c1ccc(/C=C\I)cc1)N2 (centres undefined) | 4.2
O=C(OCCC[18F])C1C2CCC(CC1c1cccc(/C=C\I)c1)N2 (centres undefined) | 2

----------
Reported Drug uptake values for the following molecules.
# Test system: Medulla
# Test: Drug uptake in anesthetized cynomolgus monkey brain medulla after 35 mins postinjection
# Type: ADME, organism-based, Macaca fascicularis
# Settings: in vivo
Outcome Measure: Drug uptake

O=C(OCCC[18F])C1C2CCC(CC1c1cccc(/C=C\I)c1)N2 (centres undefined) | 5.04
O=C(OCCC[18F])C1C2CCC(CC1c1cccc(/C=C\Br)c1)N2 (centres undefined) | 5.92
O=C(OCC[18F])C1C2CCC(CC1c1cccc(/C=C\Br)c1)N2 (centres undefined) | 4.97
O=C(OCC[18F])C1C2CCC(CC1c1cccc(/C=C\I)c1)N2 (centres undefined) | 4.05

----------
In this section, each of the molecules is paired with its reported Drug uptake.
# Tested on: Caudate
# Test: Drug uptake in anesthetized cynomolgus monkey brain caudate after 35 mins postinjection
# Assay type: ADME, organism-based, Macaca fascicularis, Caudate nucleus
# Settings: in vivo
Outcome Measure: Drug uptake

O=C(OCC[18F])C1C2CCC(CC1c1cccc(/C=C\Br)c1)N2 (stereo not given) | 3.56
O=C(OCCC[18F])C1C2CCC(CC1c1cccc(/C=C\I)c1)N2 (stereo not given) | 3.9
O=C(OCC[18F])C1C2CCC(CC1c1ccc(/C=C\I)cc1)N2 (stereo not given) | 2.33
O=C(OCCC[18F])C1C2CCC(CC1c1cccc(/C=C\Br)c1)N2 (stereo not given) | 5.13
O=C(OCC[18F])C1C2CCC(CC1c1cccc(/C=C\I)c1)N2 (stereo not given) | 3.54

----------
# Tested on: Midbrain
# Test: Drug uptake in anesthetized cynomolgus monkey brain midbrain after 115 mins postinjection
# Format: ADME, organism-based, Macaca fascicularis
# Set-up: unit not given here
# Settings: in vivo
Outcome Measure: Drug uptake

O=C(OCC[18F])C1C2CCC(CC1c1cccc(/C=C\I)c1)N2 (stereo not given) | 4.18
O=C(OCC[18F])C1C2CCC(CC1c1cccc(/C=C\Br)c1)N2 (stereo not given) | 4.78
O=C(OCCC[18F])C1C2CCC(CC1c1cccc(/C=C\Br)c1)N2 (stereo not given) | 5.52
O=C(OCC[18F])C1C2CCC(CC1c1ccc(/C=C\I)cc1)N2 (stereo not given) | 4.5
O=C(OCCC[18F])C1C2CCC(CC1c1cccc(/C=C\I)c1)N2 (stereo not given) | 4.76

----------
# Test: Drug uptake in anesthetized cynomolgus monkey brain occipital lobe after 225 mins postinjection
# Assay type: ADME, organism-based, Macaca fascicularis
# Settings: in vivo, 3.75 h
Outcome Measure: Drug uptake

O=C(OCC[18F])C1C2CCC(CC1c1cccc(/C=C\I)c1)N2 (centres undefined) | 1.22
O=C(OCC[18F])C1C2CCC(CC1c1cccc(/C=C\Br)c1)N2 (centres undefined) | 1.95
O=C(OCCC[18F])C1C2CCC(CC1c1cccc(/C=C\I)c1)N2 (centres undefined) | 2.09
O=C(OCCC[18F])C1C2CCC(CC1c1cccc(/C=C\Br)c1)N2 (centres undefined) | 2.54
